Source: patent US20260242478A1

- subject of test: T1, Anti-CD28 Fab (SEQ ID NOs: 696, 697)
- T1 construct: Biotinylated and captured on neutravidin coated plates in the phage ELISA
- protocol summary: phage ELISA; biotinylated anti-CD28 Fab on neutravidin plate, clonal phage supernatant, anti-M13 HRP detection;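 note: before phage addition, wells were pretreated with either CD28 antigen in blocking buffer or only blocking buffer, and phage was added without an intervening wash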
Catalogue of Phage binding ELISA, Anti-CD28 Fab signal readings, one per entry.
Answer with the value's number alone.

Observe how each entry below is paired with its result.
TCAAGANWHWPWCF [Phage-1561] = 1.46
SCAAGATYVWPMCF [Phage-1574] = 1.42
TCSAGATYTWPSCF [Phage-1572] = 1.42

[in] For the binder TCEDGFHFSWPECF [Phage-1570] , give its measured Phage binding ELISA, Anti-CD28 Fab signal value.
[out] 1.44

[in] For the binder WCDQFFHYKWPLCL [Phage-1573] , give its measured Phage binding ELISA, Anti-CD28 Fab signal value.
[out] 1.42

[in] For the binder LCAAGATYPWPICL [Phage-1562] , give its measured Phage binding ELISA, Anti-CD28 Fab signal value.
[out] 1.46
